Documented pKi across a set of compounds
target: catalytic domain of human stromelysin (Hsln) (Homo sapiens, UniProt P08254); construct: The catalytic domain of human stromelysin (Hsln) was obtained by expression and purification of a C-terminally truncated prostromelysin-1; made in house; host or cells: E. coli BL21; assay: Fluorometric MCA-peptide hydrolysis assay, stromelysin (Hsln); assay type: biochemical; conditions: apparent Ki; 10 μM MCA peptide substrate, 37° C., pH 7.5; read-out: Hsln (Ki,app)
Sequence (P08254 100-272 limits assumed): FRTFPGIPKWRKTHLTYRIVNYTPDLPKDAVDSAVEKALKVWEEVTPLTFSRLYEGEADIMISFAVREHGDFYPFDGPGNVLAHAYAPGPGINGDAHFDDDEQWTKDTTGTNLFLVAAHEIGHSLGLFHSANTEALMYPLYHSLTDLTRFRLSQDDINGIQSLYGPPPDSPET
pKi: −log10 of the molar value.
experimental endpoint: pKi

{"columns": ["compound", "qualifying sign", "experimental result"],
 "data": [
  ["O=C(O)C[C@H](C(=O)N[C@H]1Cc2cn(c3ccccc23)CCOCCNC1=O)n1ccc(-c2ccccc2)c1 [Example 1(c)]", "=", 6.31],
  ["CNC(=O)[C@@H](CC(=O)O)n1ccc(-c2ccc(-c3ccncc3)cc2)c1 [Example 7(d)]", "=", 5.80],
  ["CC(C)(C)[C@@H](CO)NC(=O)C(CC(=O)NO)n1cnc(-c2ccc(-c3ccccc3)cc2)c1 (mixture of isomers) [Example 19(b)]", "=", 7.77],
  ["O=C(CC(C(=O)N[C@H]1CCCCNC1=O)n1cnc(-c2ccc(-c3ccccc3)cc2)c1)NO (mixture of isomers) [Example 19(a)]", "=", 7.51],
  ["CNC(=O)[C@@H](NC(=O)[C@@H](CC(=O)O)n1ccc(-c2ccc(-c3ccc(C#N)cc3)cc2)c1)C(C)(C)C [Example 5(c)]", "=", 8.82],
  ["CC1(C)COC(=O)[C@H]1NC(=O)[C@@H](CC(=O)O)c1ccn(-c2ccc(-c3ccc(C#N)cc3)cc2)c1 [Example 14(d)]", "=", 7.72],
  ["CC(C)(C)[C@@H](CO)NC(=O)[C@@H](CC(=O)NO)n1cnc(-c2ccc(-c3ccccc3)cc2)c1 [Example 19(c)]", "=", 7.77],
  ["CNC(=O)[C@@H](NC(=O)[C@@H](CC(=O)O)n1ccc(C(=O)Cc2ccc(C#N)cc2)c1)C(C)(C)C [Example 1(p)]", "=", 4.26],
  ["CC(C)(C)[C@H](NC(=O)C(CC(=O)O)c1ccsc1)C(=O)Nc1ccncc1 (stereo in doubt) [Example 17(c)]", "=", 6.03],
  ["O=C(O)C[C@H](C(=O)N[C@H](CO)Cc1ccccc1)c1ccn(-c2ccc(-c3ccccc3)cc2)c1 [Example 13]", "=", 7.46],
  ["COC(=O)c1ccc(NC(=O)[C@H](CC(C)C)NC(=O)[C@@H](CC(=O)O)c2ccsc2)cc1 [Example 17(b)]", "=", 6.14],
  ["O=C(O)C[C@H](C(=O)N[C@H](CO)Cc1ccccc1)c1ccc(-c2ccc(-c3ccccc3)cc2)o1 [Example 15(a)]", "=", 7.04],
  ["CC(C)(C)[C@@H](CO)NC(=O)[C@@H]([C@H](CCCO)C(=O)O)n1ccc(-c2ccc(-c3ccccc3)cc2)c1 [Example 11]", "=", 7.21],
  ["O=C(O)C[C@H](C(=O)N[C@H]1Cc2cn(c3ccccc23)CCCCCCNC1=O)n1cccc1 [Example 1(o)]", "<", 5.00]
]}

###

Target: Human matrilysin (Matr) (Homo sapiens)
Sequence (P09237 95-267): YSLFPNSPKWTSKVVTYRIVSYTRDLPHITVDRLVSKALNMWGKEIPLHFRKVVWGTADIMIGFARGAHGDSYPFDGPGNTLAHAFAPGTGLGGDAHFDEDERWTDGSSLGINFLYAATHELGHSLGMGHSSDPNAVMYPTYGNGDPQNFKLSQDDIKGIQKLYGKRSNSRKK
pKi: −log10 of the molar value. Where a name gives a salt, the structure may show the parent alone.

{"columns": ["compound", "measurement target", "pKi"],
 "data": [
  ["CC1(C)COC(=O)[C@H]1NC(=O)[C@@H](CC(=O)O)n1ccc(-c2ccc(-c3ccncc3)cc2)c1", "Human matrilysin (Matr) (Homo sapiens)", 5.30],
  ["COC(=O)c1ccc(NC(=O)[C@H](CC(C)C)NC(=O)[C@@H](CC(=O)O)n2ccc(-c3ccc(-c4ccccc4)cc3)c2)cc1", "Human matrilysin (Matr) (Homo sapiens)", 7.96],
  ["CC(C)(C)[C@H](NC(=O)[C@@H](CC(=O)O)n1ccc(-c2ccc(-c3ccc(C#N)cc3)cc2)c1)C(=O)Nc1ccncc1 [Example 5(d), Formate Salt]", "Human matrilysin (Matr) (Homo sapiens)", 8.35]
]}
